EXPERIMENT_DESCRIPTION: Solubility was evaluated at pH 7.4 buffer at 25 degree Centigrade
Format: physicochemical
TEST_READOUT: solubility (mg/mL)
Respond numerically; units are mg/mL and should not be typed.

COMPOUND_SMILES: NS(=O)(=O)c1cc2cc(CN3CCOCC3)sc2o1
TEST_READOUT: solubility
READOUT_VALUE: 0.97

COMPOUND_SMILES: NS(=O)(=O)c1cc2cc(CNCc3ccccn3)sc2o1
TEST_READOUT: solubility
READOUT_VALUE: 16.9

So for CCOCCNCc1cc2cc(S(N)(=O)=O)oc2s1 , the logged solubility turned out to be 19.7

* * *

Read-out record for Carbonic anhydrase 2 (Homo sapiens, UniProt P00918): Ki
Reply numerically in nM, unit not repeated.

Below: 4 compounds and their reported Ki.
COMPOUND_SMILES: COCCOCCN(CCOC)Cc1cc2cc(S(N)(=O)=O)oc2s1
TARGET_ENTITY: Carbonic anhydrase 2 (Homo sapiens, UniProt P00918)
READOUT_VALUE: 3.6

COMPOUND_SMILES: COCCN(CCOC)Cc1cc2cc(S(N)(=O)=O)oc2s1
TARGET_ENTITY: Carbonic anhydrase 2 (Homo sapiens, UniProt P00918)
READOUT_VALUE: 2.6

COMPOUND_SMILES: NS(=O)(=O)c1cc2cc(CNCc3ccccn3)sc2o1
TARGET_ENTITY: Carbonic anhydrase 2 (Homo sapiens, UniProt P00918)
READOUT_VALUE: 8.2

COMPOUND_SMILES: CC(C)CNCc1cc2cc(S(N)(=O)=O)oc2s1
TARGET_ENTITY: Carbonic anhydrase 2 (Homo sapiens, UniProt P00918)
READOUT_VALUE: 7.4

We next turn to a different compound, shown below.
// sample NS(=O)(=O)c1cc2cc(CN3CCOCC3)sc2o1 , its Ki was 1.24

* * *

EXPERIMENT_DESCRIPTION: pKa in water
Type: physicochemical
TEST_READOUT: pKa

Here are 2 compounds together with their reported answers.
COMPOUND_SMILES: CCOCCNCc1cc2cc(S(N)(=O)=O)oc2s1
READOUT_VALUE: 6.85

COMPOUND_SMILES: NS(=O)(=O)c1cc2cc(CN3CCOCC3)sc2o1
READOUT_VALUE: 5.32

Lab note: COCCNCc1cc2cc(S(N)(=O)=O)oc2s1 gave pKa of 7

The origin of these recorded values is ChEMBL document CHEMBL1125519.
